Source: paper PMC9454848

Protocol summary: Plasma pharmacokinetics after single dose (C1D1), LC-MS/MS
Type: in vivo, human
Condition info: human, plasma, oral, 2 mg, cohort Schedule C, n = 6
Observable: Cmax (ng/mL)
Give just the number in ng/mL; leave the unit off.

So what does the record say about Cmax for Cc1nnn(C)c1-c1cnc2c3ccc(C(C)(C)O)cc3n([C@H](c3ccccc3)C3CCOCC3)c2c1 [BMS-986158] ?
295

* * *

Protocol summary: Plasma pharmacokinetics after single dose (C1D1), LC-MS/MS
Type: in vivo, human
Condition info: human, plasma, oral, 2 mg, cohort Schedule B, 2.0 mg, n = 1, read-out: Tmax, median
Procedure: At C1D1 in every dosing schedule cohort, a single dose was administered followed by 168 h (i.e., 7 days) of intensive PK sampling. Following cycle 1, the multiple-dose treatment schedules (described above) began in cycle 2. […] PK assessments were evaluated for BMS-986158 and its metabolite using plasma samples at regular intervals. Both the parent and metabolite samples were simultaneously analyzed using a validated liquid chromatography and tandem mass spectrometry assay. […]
Observable: Tmax

Form field: reported Tmax of `Cc1nnn(C)c1-c1cnc2c3ccc(C(C)(C)O)cc3n([C@H](c3ccccc3)C3CCOCC3)c2c1`
1 h

* * *

Protocol summary: Plasma pharmacokinetics after single dose (C1D1), LC-MS/MS
Type: in vivo, human
Condition info: human, plasma, oral, read-out: Mean T1/2, range across doses
Observable: half-life

So what's the measured half-life for this one? `Cc1nnn(C)c1-c1cnc2c3ccc(C(C)(C)O)cc3n([C@H](c3ccccc3)C3CCOCC3)c2c1`
34 to 54 h

* * *

Protocol summary: Plasma pharmacokinetics after single dose (C1D1), LC-MS/MS
Assay type: in vivo, human
Condition info: human, plasma, oral, 0.75 mg, cohort Schedule A, 0.75 mg, n = 4, read-out: Vz/F, GM (%CV)
Observable: Vd/F

Quick one: Vd/F for `Cc1nnn(C)c1-c1cnc2c3ccc(C(C)(C)O)cc3n([C@H](c3ccccc3)C3CCOCC3)c2c1` ?
14.7 L

* * *

Protocol summary: Plasma pharmacokinetics after single dose (C1D1), LC-MS/MS
Type: in vivo, human
Condition info: human, plasma, oral, 0.75 mg, cohort Schedule A, 0.75 mg, n = 5, read-out: Tmax, median
Observable: Tmax (h)
Write the answer as a number in h, unit excluded.

For the molecule shown here, `Cc1nnn(C)c1-c1cnc2c3ccc(C(C)(C)O)cc3n([C@H](c3ccccc3)C3CCOCC3)c2c1` , give the reported Tmax.
4

* * *

Protocol summary: Plasma pharmacokinetics after single dose (C1D1), LC-MS/MS
Format: in vivo, human
Condition info: human, plasma, oral, 2 mg, cohort Schedule C, 2.0 mg, n = 6, read-out: Tmax, median
Observable: Tmax (h)
Entry rule: numbers only, all in h.

Fill in: Tmax of Cc1nnn(C)c1-c1cnc2c3ccc(C(C)(C)O)cc3n([C@H](c3ccccc3)C3CCOCC3)c2c1 [BMS-986158] is ___
1

* * *

Protocol summary: Plasma pharmacokinetics after multiple doses (cycle 2, steady state), LC-MS/MS
Type: in vivo, human
Condition info: human, plasma, oral, 1.25 mg, multiple dose, steady state; Schedule A (5 days on, 2 days off), 1.25 mg, n = 1; read-out: AUC(0–24), GM (%CV)
Observable: AUC(0-t) (ng·h/mL)
Express your answer in ng·h/mL, writing the number without its unit.

Entry `Cc1nnn(C)c1-c1cnc2c3ccc(C(C)(C)O)cc3n([C@H](c3ccccc3)C3CCOCC3)c2c1` : reported AUC(0-t) = ?
3850
